TGT: Human recombinant PDE2A (hPDE2A) (Homo sapiens, UniProt O00408)
Construct: His tag (inferred from metal chelate purification); made in house; host or cells: Sf9 insect cells (baculovirus)
Sequence (O00408 whole entry): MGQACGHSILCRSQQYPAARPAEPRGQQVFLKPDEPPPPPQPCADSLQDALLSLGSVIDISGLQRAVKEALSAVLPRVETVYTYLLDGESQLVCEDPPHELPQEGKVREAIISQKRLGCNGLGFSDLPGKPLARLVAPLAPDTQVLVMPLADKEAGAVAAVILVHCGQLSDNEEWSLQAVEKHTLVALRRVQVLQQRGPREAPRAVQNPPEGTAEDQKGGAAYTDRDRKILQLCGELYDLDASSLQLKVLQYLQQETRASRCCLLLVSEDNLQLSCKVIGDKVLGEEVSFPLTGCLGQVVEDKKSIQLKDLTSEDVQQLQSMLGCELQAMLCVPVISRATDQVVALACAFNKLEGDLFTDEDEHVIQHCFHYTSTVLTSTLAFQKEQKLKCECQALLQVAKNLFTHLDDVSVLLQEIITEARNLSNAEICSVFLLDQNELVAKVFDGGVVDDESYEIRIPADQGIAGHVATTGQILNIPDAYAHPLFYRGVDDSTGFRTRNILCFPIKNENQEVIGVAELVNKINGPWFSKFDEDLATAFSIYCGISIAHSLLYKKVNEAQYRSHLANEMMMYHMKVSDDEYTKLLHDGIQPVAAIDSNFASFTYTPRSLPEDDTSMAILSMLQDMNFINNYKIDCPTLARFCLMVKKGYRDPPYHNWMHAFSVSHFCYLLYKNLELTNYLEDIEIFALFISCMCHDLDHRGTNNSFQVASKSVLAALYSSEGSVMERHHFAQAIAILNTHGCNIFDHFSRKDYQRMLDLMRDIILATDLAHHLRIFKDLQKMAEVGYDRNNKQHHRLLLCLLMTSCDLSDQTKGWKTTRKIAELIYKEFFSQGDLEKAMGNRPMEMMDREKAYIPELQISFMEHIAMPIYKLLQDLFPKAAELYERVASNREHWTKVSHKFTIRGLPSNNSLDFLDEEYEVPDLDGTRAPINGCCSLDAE
ASSAY_REMARKS: In vitro assay PDE2A (SPA, 3H-cGMP hydrolysis)
Type: biochemical
PROTOCOL_CONDITIONS: read-out: hPDE2A pIC50 (converted)

# MOLECULE, IC50
records = [
    ("Cc1cc(C(=O)N2CC[C@@H](C)[C@H](c3cc(C(F)F)nc4ncnn34)C2)cc(CO)n1 [Compound 361]", "2.75 nM"),
    ("Cc1cc(C(=O)N2C3CCC2[C@@H](c2cc(C(F)F)nc4ncnn24)CC3)cc(C2CC2)n1 (stereo partly drawn) [Compound 28]", "0.955 nM"),
    ("C[C@@H]1CCN(C(=O)c2ncc(C#N)cc2Cl)C[C@H]1c1cc(C(F)F)nc2ncnn12 [Compound 238]", "380 nM"),
    ("C[C@@H]1CCN(C(=O)c2ccc3ccccc3n2)C[C@H]1c1cc(C(F)F)nc2ncnn12 [Compound 323]", "3.89 nM"),
    ("C[C@@H]1CCN(C(=O)c2ccc(C#N)cn2)C[C@H]1c1cc(C(F)F)nc2ncnn12 [Compound 234]", "513 nM"),
    ("Cc1ccc(C(=O)N2[C@H]3CC[C@H](c4cc(C(F)F)nc5ncnn45)[C@@H]2CC3)o1 [Compound 354]", "89.1 nM"),
    ("C[C@@H]1CCN(C(=O)c2cccc(N)n2)C[C@H]1c1cc(C(F)F)nc2ncnn12 [Compound 162]", "74.1 nM"),
    ("CCCC[C@@H]1CCN(C(=O)c2cc(C)nc(C)c2)C[C@H]1c1cc(C(F)F)nc2ncnn12 (mixture of isomers) [Compound 44]", "9.55 nM"),
    ("COc1ccc2nc(C(=O)N3CC[C@@H](C)[C@H](c4cc(C(F)F)nc5ncnn45)C3)sc2c1 [Compound 171]", "11.7 nM"),
    ("O=C(c1ccc2occc2c1)N1[C@H]2CC[C@H](c3cc(C(F)F)nc4ncnn34)[C@@H]1CC2 [Compound 353]", "3.39 nM"),
    ("Cn1ccc2cc(C(=O)N3[C@H]4CC[C@H](c5cc(C(F)F)nc6ncnn56)[C@@H]3CC4)cc(F)c21 [Compound 374]", "0.741 nM"),
    ("Cc1cc([C@@H]2CN(C(=O)c3cc(C4CC4)ncc3Cl)CC[C@H]2C)n2ncnc2n1 [Compound 391]", "2.4 nM"),
    ("Cn1cc(C(=O)N2[C@H]3CC[C@H](c4cc(C(F)F)nc5ncnn45)[C@@H]2CC3)c2ccccc21 [Compound 297]", "2.34 nM"),
    ("C[C@@H]1CCN(C(=O)c2ccn(C)n2)C[C@H]1c1cc(C(F)F)nc2ncnn12 [Compound 139]", "28.8 nM"),
    ("CN(C)c1ccc(C(=O)N2[C@H]3CC[C@H](c4cc(C(F)F)nc5ncnn45)[C@@H]2CC3)cc1 [Compound 362]", "1.7 nM"),
]

###

TGT: Human recombinant PDE3A (hPDE3A) (Homo sapiens, UniProt Q14432)
Construct: purchased Scottish Biomedical; host or cells: Sf9 insect cells
Sequence (Q14432 whole entry): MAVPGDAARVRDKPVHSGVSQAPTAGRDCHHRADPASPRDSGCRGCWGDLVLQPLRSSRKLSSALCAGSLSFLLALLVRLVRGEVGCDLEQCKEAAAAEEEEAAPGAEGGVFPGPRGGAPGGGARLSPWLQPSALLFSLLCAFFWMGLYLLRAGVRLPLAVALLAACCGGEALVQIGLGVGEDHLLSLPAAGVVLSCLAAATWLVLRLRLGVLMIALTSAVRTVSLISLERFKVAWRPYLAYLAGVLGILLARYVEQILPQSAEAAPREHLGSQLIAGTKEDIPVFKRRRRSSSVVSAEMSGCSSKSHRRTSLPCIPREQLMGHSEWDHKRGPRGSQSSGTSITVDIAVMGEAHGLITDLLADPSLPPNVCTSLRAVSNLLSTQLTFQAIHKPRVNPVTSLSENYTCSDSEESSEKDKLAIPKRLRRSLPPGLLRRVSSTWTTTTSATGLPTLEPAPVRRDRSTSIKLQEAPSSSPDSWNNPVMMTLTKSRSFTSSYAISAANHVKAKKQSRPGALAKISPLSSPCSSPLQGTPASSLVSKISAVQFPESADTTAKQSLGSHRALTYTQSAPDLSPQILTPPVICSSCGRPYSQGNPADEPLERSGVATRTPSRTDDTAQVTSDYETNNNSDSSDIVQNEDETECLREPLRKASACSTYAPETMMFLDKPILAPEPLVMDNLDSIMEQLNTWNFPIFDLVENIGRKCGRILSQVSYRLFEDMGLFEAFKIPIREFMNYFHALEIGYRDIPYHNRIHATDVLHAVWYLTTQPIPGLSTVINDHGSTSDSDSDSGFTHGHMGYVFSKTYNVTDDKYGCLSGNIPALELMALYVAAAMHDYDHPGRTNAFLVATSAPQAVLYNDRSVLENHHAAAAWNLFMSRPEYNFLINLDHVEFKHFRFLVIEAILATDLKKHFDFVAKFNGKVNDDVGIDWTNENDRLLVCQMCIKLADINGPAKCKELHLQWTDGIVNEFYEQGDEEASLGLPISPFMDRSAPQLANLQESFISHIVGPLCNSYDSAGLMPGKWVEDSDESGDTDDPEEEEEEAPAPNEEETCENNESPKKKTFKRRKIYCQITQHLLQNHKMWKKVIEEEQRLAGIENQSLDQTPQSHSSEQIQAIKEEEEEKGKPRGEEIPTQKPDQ
ASSAY_REMARKS: In vitro assay PDE3A (SPA, 3H-cAMP hydrolysis);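 note: the method names PDE3A and the table heading PDE3B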
Format: biochemical
PROTOCOL_CONDITIONS: hPDE3B pIC50; read-out: pIC50 (converted)
Description: Human recombinant PDE3A (hPDE3A) was supplied as a partially purified insect cell lysate by Scottish Biomedical, it was cloned from human brain and expressed in Sf9 cells. Tested compounds were dissolved and diluted in 100% DMSO to a concentration 100 fold of the final concentration in the assay. […] After sedimentation of the beads during 30 min the radioactivity was measured in a Perkin Elmer Topcount scintillation counter and results were expressed as cpm. […]
Recorded IC50 values for a group of compounds are listed next.
READOUT_TYPE: IC50

# COMPOUND, READING
records = [
    ("Cc1cc([C@@H]2CN(C(=O)c3cc(C)c(F)c(C)c3)CC[C@H]2C)n2ncnc2n1", "0.851 µM"),
    ("CC1(c2ccnc3ncnn23)CCCN(C(=O)c2ccc3occc3c2)C1 (centres unmarked)", "> 10 µM"),
    ("COc1cc(C(=O)N2CC[C@@H](C)[C@H](c3cc(C)nc4ncnn34)C2)cc(Cl)n1", "1.51 µM"),
    ("Cc1cc2ccc(C(=O)N3CC[C@@H](C)[C@H](c4cc(C(F)F)nc5ncnn45)C3)cn2c1", "0.178 µM"),
    ("Cc1cc([C@@H]2CC[C@@H]3CC[C@H]2N3C(=O)c2ccc3ncsc3c2)n2ncnc2n1", "> 10 µM"),
    ("COc1cc(C(=O)N2[C@H]3CC[C@H](c4cc(C(F)F)nc5ncnn45)[C@@H]2CC3)ccc1F", "> 10 µM"),
    ("Cc1nc(C(=O)N2CC[C@@H](C)[C@H](c3cc(C(F)F)nc4ncnn34)C2)c(C)o1", "> 10 µM"),
    ("C[C@@H]1CCN(C(=O)c2cccc(C(C)(C)C#N)c2)C[C@H]1c1cc(C(F)F)nc2ncnn12", "6.03 µM"),
]
